Target: T1, Pot1pC (Schizosaccharomyces pombe, UniProt O13988 178-389)
T1 sequence: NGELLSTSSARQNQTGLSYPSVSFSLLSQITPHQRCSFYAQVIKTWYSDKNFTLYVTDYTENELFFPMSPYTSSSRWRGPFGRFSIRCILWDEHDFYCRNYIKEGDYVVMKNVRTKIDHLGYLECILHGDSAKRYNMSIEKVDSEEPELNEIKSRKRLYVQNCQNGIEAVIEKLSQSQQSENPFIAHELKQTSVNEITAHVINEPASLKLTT
Test: EMSA
Catalogue of binders with associated pKd
Just the number, please; pKd means minus log10 of the concentration in mol/L.

Example binders with recorded pKd:
Look up pKd for this binder: CGGTTAC (ssDNA) [7mer-5']
4.46

Look up pKd for this binder: ACGGTTAC (ssDNA) [8mer-5']
4.82

Proceed to the following item.
Look up pKd for this binder: GGTTACG (ssDNA) [7mer-3']
4.98
